Tested on: lung cancer A-549
Assay: MTT cytotoxicity assay, A-549 cells
Conditions: Homo sapiens, A549, 24 h, read-out: Cytotoxicity IC50 A-549
Label Satisfied when IC50 < 40 µM; otherwise Not satisfied.

compound: COc1cccc2c1C(=O)c1c(O)c3c(c(O)c1C2=O)C[C@@](O)(C(=O)CO)C[C@@H]3O[C@H]1C[C@H](N)[C@H](O)[C@H](C)O1 [doxorubicin, reference compound]
assigned.label: Satisfied
--
compound: C/C(=C\C1C[C@](C)(O)C2[C@@H](C[C@@]3(C)[C@@H]4CC=C5[C@@H](CC[C@H](O)C5(C)C)[C@]4(C)C(=O)C[C@]23C)O1)CO[C@@H]1O[C@H](CO)[C@@H](O)[C@H](O)[C@H]1O (stereo partly drawn) [Compound 2]
assigned.label: Not satisfied
--
compound: CC(=CC1CC(C)(O)C2C(CC3(C)C4CC=C5C(CC(O)C(O)C5(C)C)C4(C)C(=O)CC23C)O1)COC1OC(CO)C(O)C(O)C1O (stereo not drawn) [Compound 1]
assigned.label: Not satisfied
--
compound: C[C@H](CCC=C(CO)CO)C1CC[C@@]2(C)[C@@H]3C(=O)C=C4[C@@H](CCC(O[C@@H]5O[C@H](CO)[C@@H](O)[C@H](O)[C@H]5O)C4(C)C)[C@]3(C)C(=O)C[C@]12C (stereo partly drawn) [Compound 5]
assigned.label: Satisfied
--
compound: C/C(=C\CC[C@@H](C)C1CC[C@@]2(C)[C@@H]3CC=C4[C@@H](CCC(O[C@@H]5O[C@H](CO)[C@@H](O)[C@H](O)[C@H]5O)C4(C)C)[C@]3(C)C(=O)C[C@]12C)CO (stereo partly drawn) [Compound 3]
assigned.label: Satisfied

###

Experiment: in vitro
Settings: human, normal liver L-02 cells
observable: IC50 at 48 h (µM)

compound: COc1cccc2c1C(=O)c1c(O)c3c(c(O)c1C2=O)C[C@@](O)(C(=O)CO)C[C@@H]3O[C@H]1C[C@H](N)[C@H](O)[C@H](C)O1 [doxorubicin, reference compound]
observable: IC50 at 48 h
value.observed: 15.4
